Hey, just so you know, these numbers are from PubChem BioAssay (NCI).

test: NCI Yeast Anticancer Drug Screen. Data for the mec2-1 strain (AID 157); conditions: S. cerevisiae mec2-1 strain, at 5.0 µM (retest, dose inferred, filed as 0.5)
This is part of a sample that, as a whole, favours compounds with a hit. Of some 79,000 tested, about 15% had one in any assay. Activity calls are given as the source filed them. No stated cut-off is given here; in the data, active means growth inhibition above about 70%; inactive means the rest.
Please state which outcome applies, choosing from active, inactive

Data request: Kindly provide the recorded test outcome for the following compound: Cc1cccc(C)c1N=C(N)N[N+](=O)[O-]
Data returned: inactive

Data request: Kindly provide the recorded test outcome for the following compound: COc1ccc(/C=C(\C)[N+](=O)[O-])cc1OC
Data returned: inactive

Data request: Kindly provide the recorded test outcome for the following compound: C/C(=N\Nc1ccccc1)C(CN(C)C)C(c1ccccc1)c1c(O)c2ccccc2oc1=O (stereo not given)
Data returned: inactive

###

assay: NCI Yeast Anticancer Drug Screen. Data for the mlh1 rad18 strain (AID 175); conditions: S. cerevisiae mlh1 rad18 strain growth inhibition; at 50.0 µM; hits give high values
About 79,000 compounds went through this panel and 15% of them were active in at least one assay; those are over-represented in the sample as a whole.
PARAMETER: growth inhibition (%)
Give a bare numeral; the unit % is implied.

Cc1ccccc1N
4.4
CCCCCCCCCCOC(=O)CC(C)=O.CCCCCCCCCCOC(=O)CC(C)=O.[Ni+2]
-39
CCC[CH2][Sn]([CH2]CCC)([CH2]CCC)[O]C(=O)C(OC)c1ccccc1 (stereo unspecified)
89.4
O=C(Nc1ccccc1)c1cc([N+](=O)[O-])ccc1O.[Ni]
52.3
CCCCCCCCOC(=O)c1ccccc1C(=O)OCCCCCCCC
-5.5
CCOC(OCC)c1ccccc1
14.2
O=C1CC(=O)N(C2CCC(C3CCCCC3)CC2)C(=O)N1 (stereo unspecified)
5.75
CC[C@@]1(O)C(=O)OCc2c1cc1n(c2=O)Cc2c-1nc1ccccc1c2Cl
46.3

For reference, reported growth inhibition for O=C([CH-]C(=O)c1ccccc1)c1ccccc1.O=C([CH-]C(=O)c1ccccc1)c1ccccc1.[La+3].[OH-].[OH3+] stands at 88.2

For reference, reported growth inhibition for CCN1CCCc2cc3c(C(F)(F)F)cc(=O)oc3cc21 stands at -11.8

For reference, reported growth inhibition for Cc1cc(Cl)ccc1OC(C)C(=O)O (stereo unspecified) stands at -7.55

###

Each record here notes measured growth inhibition.
assay: NCI Yeast Anticancer Drug Screen. Data for the rad50 strain (AID 155);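 further: 0% = growth of vehicle-only cultures of the same strain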; conditions: S. cerevisiae rad50 strain growth inhibition; at 50.0 µM; hits give high values
The panel holds about 79,000 compounds, 15% with a hit somewhere; the sample as a whole holds those more often.
Give a bare numeral; the unit % is implied.

CC(=O)OC1(C(C)=O)CC2(c3ccccc3)OC1(c1ccccc1)c1ccccc12 (stereo unspecified)
-0.55
CCC1(CC(C)O)C(=O)NC(=O)NC1=O (stereo unspecified)
6.9
Clc1ccc(C2ON2c2ccccc2)cc1 (stereo unspecified) (tested in a mixture with another compound)
3.1
CC[CH](C)[Sn](=[O])[c]1ccccc1 (stereo unspecified)
81.1
CN1C(=O)N(C)C(O)C(Cl)(Br)C1=O (stereo unspecified)
-0.5

Pending compound:
For reference, reported growth inhibition for Cc1ccc(O)c(Cl)c1 stands at -1

###

Test: NCI Yeast Anticancer Drug Screen. Data for the bub3 strain (AID 167)
Settings: S. cerevisiae bub3 mutant strain, at 5.0 µM (retest, dose inferred, filed as 0.5), hits give high values
Method: Growth inhibition of yeast strains with defined genetic alterations is measured as a screen for potential anti-cancer activity. Selected strains with alterations in DNA damage repair or cell cycle control were exposed to compounds and growth inhibition was measured relative to vehicle treated controls. The strain used in this assay is bub3
Compounds without any hit were thinned out: in the full panel of roughly 79,000, 15% have a hit.
Use 1.0 when the recorded growth inhibition is no lower than 30%; use 0.0 when it is lower.

C(=P(c1ccccc1)(c1ccccc1)c1ccccc1)[P+](c1ccccc1)(c1ccccc1)c1ccccc1.[Cl][Fe]([Cl])([Cl])[Br]
1.0
CC(=O)NNc1ccccc1
0.0
C[N+](C)(C)CC1Cc2ccccc2C1=O (stereo not drawn)
1.0
COCCOCCOC(=O)CBr
0.0
CC(=O)[C-](I)C(C)=O.CC(=O)[C-](I)C(C)=O.CC(=O)[C-](I)C(C)=O.[Ru+3]
0.0

Data request: Reported growth inhibition at or above 30%? CC12CCC3C(CC=C4CC(SC(=N)N)CCC43C)C1CCC2=O (stereo not drawn)
Data returned: 0.0

Data request: Reported growth inhibition at or above 30%? O=C(Nc1ccccc1)c1cc([N+](=O)[O-])ccc1O.[Ni]
Data returned: 1.0

###

Each record here notes measured growth inhibition.
assay: NCI Yeast Anticancer Drug Screen. Data for the mlh1 rad18 strain (AID 175); conditions: S. cerevisiae mlh1 rad18 strain growth inhibition; at 50.0 µM; hits give high values
Compounds without any hit were thinned out: in the full panel of roughly 79,000, 15% have a hit.
Give a bare numeral; the unit % is implied.

CCN1CCC(O)(c2ccc(O)cc2)C(C(=O)c2ccc(O)cc2)C1 (stereo unspecified)
86.7
Cn1cnc([N+](=O)[O-])c1C(=O)O
6.55
CCCC(C)OP(=O)(OCC)OCC (stereo unspecified)
-3.5
Oc1ccc(C=NCC2CCCC[N-]2)c(O)c1.Oc1ccc(C=NCC2CCCC[N-]2)c(O)c1.[Ni+2] (stereo unspecified)
-8.4
CC(=O)Nc1ncc2ccccc2c1-c1ccc(NC(=O)CCN(CCCl)CCCl)cc1
-9.2
CC(=O)O[C@H]1CC[C@@]2(C)C(=CC[C@@H]3[C@@H]2CC[C@]2(C)C(=O)[C@@H](CN4CC4)C[C@@H]32)C1
62
CC(=O)OC[C@]12C[C@H](OC(=O)CC(C)C)C(C)=C[C@H]1O[C@@H]1[C@H](O)[C@@H](O)[C@@]2(C)[C@@]12CO2
84.8
O=S(=O)(CCBr)CCBr
85.2
Cc1cc(Cl)ccc1OCCCC(=O)O
15.4
CCOP(O)(=S)OCC.[Yb]
-7.4

Pending compound:
For reference, reported growth inhibition for CNC1(c2ccccc2)CC1 stands at -7.05

###

test: NCI Yeast Anticancer Drug Screen. Data for the sgs1 mgt1 strain (AID 161);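 further: 0% = growth of cultures given vehicle only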; conditions: S. cerevisiae sgs1 mgt1 strain, at 50.0 µM, hits give high values
This is part of a sample that, as a whole, favours compounds with a hit. Of some 79,000 tested, about 15% had one in any assay.
Use class 1 when the recorded growth inhibition is no lower than 30%; use class 0 when it is lower.

The following compounds have reported results that may help.
CCC(C)(C)OC(=O)CCl
class 0
NC(N)=NCCN=C(N)N
class 0
CCC[CH2][Sn]1([CH2]CCC)[O]CC(CN2CCCCC2)[O]1 (stereo not drawn)
class 1

Data request: Reported growth inhibition at or above 30%? CC(=O)OC1CC(OC2C(O)CC(OC3C(O)CC(OC4CCC5(C)C(CCC6C5CCC5(C)C(C7=CC(=O)OC7)C(O)CC65O)C4)OC3C)OC2C)OC(C)C1OC1OC(CO)C(O)C(O)C1O (stereo not drawn)
Data returned: class 0

Data request: Reported growth inhibition at or above 30%? CC(C)N1COC2Cc3ccccc3CC21 (stereo not drawn)
Data returned: class 0

Data request: Reported growth inhibition at or above 30%? NCCNCCNCCNCCN (tested in a mixture with another compound)
Data returned: class 1

Data request: Reported growth inhibition at or above 30%? NC(C(=O)[O-])C(=O)[O-].NC1CCCCC1N.[Pt+4]
Data returned: class 0

Data request: Reported growth inhibition at or above 30%? O=C(NCC1(O)N=C(c2ccc(F)cc2)c2ccsc2-n2cccc21)c1ccc(Cl)cc1Cl (stereo not drawn)
Data returned: class 1

Data request: Reported growth inhibition at or above 30%? O.O=[Se](=O)(O)O.[NH-]C1CCCCC1[NH-].[Pt+2] (stereo not drawn)
Data returned: class 0

Data request: Reported growth inhibition at or above 30%? CC(C)=C(OP1(=S)OCCN1C)C(C)(C)C(=O)N(C)C (stereo not drawn)
Data returned: class 0

Data request: Reported growth inhibition at or above 30%? [Cl][Tl]
Data returned: class 0

Data request: Reported growth inhibition at or above 30%? O=c1c2ccccc2oc2ccccc12 (tested in a mixture with another compound)
Data returned: class 0

Data request: Reported growth inhibition at or above 30%? CCCCCc1cc(OC(=O)CCCN(CC)CC)c2c(c1)OC(C)(C)[C@@H]1CCC(C)=C[C@@H]21
Data returned: class 1

Data request: Reported growth inhibition at or above 30%? CCC[C@H]1CCCCN1
Data returned: class 0

Data request: Reported growth inhibition at or above 30%? CC(=O)CC(C)=O.[In]
Data returned: class 1

Data request: Reported growth inhibition at or above 30%? O=[N+]([O-])c1cccc(SC(Cl)(Cl)Cl)c1
Data returned: class 1

Data request: Reported growth inhibition at or above 30%? CCC(=O)N(c1ccccc1)C(C)CN1CCC(O)(c2ccccc2)CC1 (stereo not drawn)
Data returned: class 0

Data request: Reported growth inhibition at or above 30%? CC1=CC(=O)c2c(O)cccc2C1=O
Data returned: class 1
